assay-details: Selectivity index, ratio of IC50 for rat L6 cells to IC50 for Trypanosoma brucei rhodesiense STIB900
Type: toxicity, cell-based
experimental-context: L6 cells (versus Trypanosoma brucei rhodesiense STIB900), read-out: Ratio IC50
reported-property: selectivity ratio
Enter the number alone.

Value lookup for selectivity ratio; key = CCN(CC)CCC(=O)OC1CC2(N(C)C)CC(c3ccccc3)C1C(c1ccccc1)C2 (centres undefined) 215

Value lookup for selectivity ratio; key = CN1CCN(CCCN2CCC3(N4CCN(C)CC4)CC(c4ccccc4)C2C(c2ccccc2)C3)CC1 (racemic) 7.16

Value lookup for selectivity ratio; key = CN1CCN(CCN2CCC3(N4CCCC4)CC(c4ccccc4)C2C(c2ccccc2)C3)CC1 (racemic) 7.93

Value lookup for selectivity ratio; key = CN1CCN(CCN2CCC3(N4CCCCC4)CC(c4ccccc4)C2C(c2ccccc2)C3)CC1 (racemic) 2.91

src = ChEMBL document CHEMBL1926546
